- System: HL-60(TB) leukemia
- RUN DESCRIPTION: NCI-60 one-dose screen, 48 h (100 = growth as untreated, 0 = no growth, -100 = all killed)
- MEASUREMENT CONTEXT: 10 µM unless noted
The panel holds about 83,000 compounds, 20% with a hit somewhere; the sample as a whole holds those more often.
// not satisfied strictly below 80% in growth; satisfied otherwise

| COMPOUND | EXPERIMENTAL SYSTEM | LABEL CLASS |
| --- | --- | --- |
| CNC(=O)CCN1CCN(CC/C=C2\c3ccccc3Sc3ccc(Cl)cc32)CC1 | HL-60(TB) leukemia | not satisfied |
| O=S(=O)(/N=c1/n(-c2ccccc2)nc2n1CCN2C1=NCCN1)c1ccc(-c2ccccc2)cc1 | HL-60(TB) leukemia | satisfied |
| CCNCCNc1cc(-c2ccc(C#N)cc2)c(C#N)c2nc3ccccc3n12 | HL-60(TB) leukemia | not satisfied |

Would you say CCOC(=O)COc1c(C)cc(SSc2cc(C)c(OCC(=O)OCC)c(C)c2)cc1C shows growth at minimum 80%? satisfied

----------
- Tested on: HL-60(TB) leukemia
- RUN DESCRIPTION: NCI-60 one-dose screen, 48 h (100 = growth as untreated, 0 = no growth, -100 = all killed)
- MEASUREMENT CONTEXT: 10 µM unless noted
The panel holds about 83,000 compounds, 20% with a hit somewhere; the sample as a whole holds those more often.
Some molecules, each annotated with its measured growth.
Use % as the unit, but write only the number.

Examples from the recorded data:
| MOLECULE | REPORTED PROPERTY | OBSERVED VALUE |
| --- | --- | --- |
| CCc1cc(C)cc(O)c1 | growth | 105 |
| COc1cc2nc3cc([N+](=O)[O-])ccc3c(NCCCNCC(C)(C)O)c2cc1OC | growth | -0.733 |
| Nc1ccn(C2CC(N)C(CO)O2)c(=O)n1 (stereo not given) | growth | 84.6 |

Record summary for O=C1C2=C(CCN(Cc3ccccc3)C2)N2CCN=C2N1Cc1ccc(C(F)(F)F)cc1 : reported growth = 20.4

Record summary for COc1ccc(/C=C/C(=O)c2ccc(Oc3ncnc4ccccc34)cc2)cc1OC : reported growth = 54.7

Record summary for CC1=C(N2CCOCC2)C(N2CCOCC2)=C(C)C(=O)C1=O : reported growth = 97.3

----------
- Test system: OVCAR-8 ovarian
- RUN DESCRIPTION: NCI-60 one-dose screen, 48 h (100 = growth as untreated, 0 = no growth, -100 = all killed)
- MEASUREMENT CONTEXT: 10 µM unless noted
Compounds without any hit were thinned out: in the full panel of roughly 83,000, 20% have a hit. Active and inactive are the calls of the source. How the source made its calls: active means growth percent below 10; inactive means the rest.
REPORTED PROPERTY: growth

Examples from the recorded data:
| COMPOUND | REPORTED PROPERTY | OBSERVED VALUE |
| --- | --- | --- |
| Nc1ccc(N)c2c1Oc1ccccc1O2 | growth | 97.5% (inactive) |
| CCOC(=O)/C(C#N)=C/c1ccc(N(CCCl)CCCl)cc1 | growth | 71.6% (inactive) |
| CN1CCN(C(=O)COc2ccc(/C=C3\CC4C5CC=C6CC(Cl)CCC6(C)C5CCC4(C)C3=O)cc2)CC1 (centres undefined) | growth | 78.9% (inactive) |
| NC(Cc1ccc2c(c1)OCO2)c1ccc2c(c1)OCO2 (centres undefined) | growth | 102% (inactive) |
| CNC(=O)Oc1cc(C(C)C)ccc1Sc1ccc(C(C)C)cc1OC(=O)NC | growth | 66.9% (inactive) |
| CCC[CH2][Sn]([CH2]CCC)([CH2]CCC)[O]C(=O)CC | growth | -70.4% (active) |

Record summary for CCC(CC)(c1ccccc1)C(OC(N)=O)c1ccccc1 (centres undefined) : reported growth = 92.5% (inactive)

Record summary for O=C(NCc1ccc([N+](=O)[O-])cc1)Nc1ccc(S(=O)(=O)F)cc1 : reported growth = 80% (inactive)

Record summary for COc1ccccc1N1CCN(CCc2c[nH]c3cc4c(cc23)OCO4)CC1 : reported growth = 88.4% (inactive)

Record summary for COc1cc(N(CCCl)CCCl)ccc1C=Nc1ccccc1C(=O)O : reported growth = 92.9% (inactive)

Record summary for CCOC(=O)c1cnc(SCc2ccc(Cl)c(Cl)c2)nc1N1CC1 : reported growth = 51.6% (inactive)

----------
- System: RPMI-8226 leukemia
- RUN DESCRIPTION: NCI-60 one-dose screen, 48 h (100 = growth as untreated, 0 = no growth, -100 = all killed)
- MEASUREMENT CONTEXT: 10 µM unless noted
- Procedure: Growth inhibition of the RPMI-8226 human tumor cell line is measured as a screen for anti-cancer activity. Cells are grown in 96 well plates and exposed to the test compound for 48 hours. Compounds are tested at a single concentration, which is 10^-5 M for most compounds. The reported endpoint is percent growth (GI% or GIPRCNT), where numbers from 0 - 100% represent growth inhibition, and numbers from -100% - 0 represent cell death. For example, a value of 40 represents 60% growth inhibition. […]
About 83,000 compounds went through this panel and 20% of them were active in at least one assay; those are over-represented in the sample as a whole.
Some compounds, each annotated with its measured growth.
Use % as the unit, but write only the number.

Examples from the recorded data:
| COMPOUND | EXPERIMENTAL SYSTEM | growth / % |
| --- | --- | --- |
| C1CNC2CCCC2C1 (configuration not stated) | RPMI-8226 leukemia | 101 |
| CN1CC2CCC(C1)C2=O | RPMI-8226 leukemia | 98.9 |
| Cc1cc(CCl)c(C)cc1CCl | RPMI-8226 leukemia | 26.4 |
| CCOC(=O)c1cnc(SCc2ccc(Cl)c(Cl)c2)nc1N1CC1 | RPMI-8226 leukemia | 59.7 |
| NS(=O)(=O)c1nc[nH]c1[N+](=O)[O-] | RPMI-8226 leukemia | 101 |

Record summary for O=C1NC(=S)NC(=O)C1=Cc1ccccc1 : reported growth = 130

Record summary for C=CCN1C(=O)C(CC)(CCC(C)C)C(=O)NC1=S (configuration not stated) : reported growth = 95.1

----------
- Tested on: HL-60(TB) leukemia
- RUN DESCRIPTION: NCI-60 one-dose screen, 48 h (100 = growth as untreated, 0 = no growth, -100 = all killed)
- MEASUREMENT CONTEXT: 10 µM unless noted
This is part of a sample that, as a whole, favours compounds with a hit. Of some 83,000 tested, about 20% had one in any assay.
REPORTED PROPERTY: growth (%)
Use % as the unit, but write only the number.

Examples from the recorded data:
| MOLECULE | VALUE UNIT | growth |
| --- | --- | --- |
| CSc1nc(NCc2ccccc2)c(C#N)c(-c2cccc([N+](=O)[O-])c2)n1 | % | 107 |
| C=C1C(=O)O[C@H]2[C@H]1CC/C(COC(=O)NCc1cc(OC)cc(OC)c1)=C\CC[C@@]1(C)O[C@@H]21 | % | -20.1 |
| COc1ccc(Cn2cc(C(=O)N=Nc3c(O)[nH]c4ccc(Br)cc34)nn2)cc1 | % | 85.2 |
| CCOC(=O)/C(C#N)=C1/C(=O)Nc2ccccc21 | % | 149 |
| C[n+]1c2ccccc2c(Nc2ccc(N3CCCCC3)cc2)c2[nH]c3ccccc3c21 | % | -55.6 |
| O=C(NC1CCCCCC1)c1ccc2c(=O)n3c(nc2c1)CCCCC3 | % | 144 |
| COc1cccc2c1C(=O)c1c(O)c3c(c(O)c1C2=O)C[C@@](O)(C(=O)COC(=O)c1cccnc1)C[C@@H]3OC1CC(N)C(O)C(C)O1 (stereo not given in full) | % | -27 |
| COC(=O)Nc1nc2ccc(S(=O)c3ccccc3)cc2[nH]1 (stereo not given) | % | 22.7 |

The molecule N#Cc1c(NC(=O)c2cccs2)[n+]([O-])c2ccc(Cl)cc2[n+]1[O-] on HL-60(TB) leukemia: growth was 122

The molecule O=C1OCC/C1=C\OCCCO/C=C1\CCOC1=O on HL-60(TB) leukemia: growth was 104

The molecule FC(F)(F)c1cc(CNc2nc(Cl)ncc2Br)cc(C(F)(F)F)c1 on HL-60(TB) leukemia: growth was 85.2

The molecule C/C(=C(/c1ccc(Cl)cc1)c1ccc(OCCN2CCCC2)cc1)c1ccccc1 on HL-60(TB) leukemia: growth was 70.4

The molecule CCOC(=O)c1cnn(-c2ccc(S(N)(=O)=O)cc2)c1N on HL-60(TB) leukemia: growth was 92.9

The molecule Cc1nc2sc(C(=O)Nc3ccccc3)c(N)c2cc1C(O)c1ccccc1 (stereo not given) on HL-60(TB) leukemia: growth was -54

The molecule COc1ccc(-c2ccc(-c3ccc(C(=N)N)cn3)o2)cc1Cl on HL-60(TB) leukemia: growth was -59.5

The molecule O=C1/C=C/[C@@H](O)[C@@H]2C[C@@H](O)C[C@H]2/C=C/CCC[C@H](CO)O1 on HL-60(TB) leukemia: growth was -25.4

The molecule CC1(C)CC[C@]2(C(=O)NCC#CCN3CCOCC3)CC[C@]3(C)C(=CC[C@@H]4[C@@]5(C)Cc6c([nH]c7ccccc67)C(C)(C)[C@@H]5CC[C@]43C)[C@@H]2C1 on HL-60(TB) leukemia: growth was 62.7

The molecule O=C1CCC(C(=O)NN(c2ccccc2)c2ccccc2)N1 (stereo not given) on HL-60(TB) leukemia: growth was -18.8

The molecule NS(=O)(=O)Oc1cccc(-c2nc3sccn3c2-c2ccccc2)c1 on HL-60(TB) leukemia: growth was 0.181

The molecule CON1CCC[C@]2(C)[C@H]3CC[C@@H]4[C@H]5[C@@H](O)C(C)(C)CC[C@]5(CO)CC[C@@]4(C)[C@]3(C)CC[C@H]2C1(C)C on HL-60(TB) leukemia: growth was 91.5
